Where these numbers come from: paper PMC12340956

Experiment Summary: MTT cytotoxicity in RPE cells
Type: cell-based
Stated Conditions: human, retinal pigment epithelial (RPE) cells, 10 μM, read-out: percentage of viability, 72 h
Method: The MTT method was used to evaluate cell viability after 72 h of treatment. Human commercial lung diploid fibroblasts (MRC-5), and diploid retinal epithelium cells (RPE) were obtained from the American Type Culture Collection (ATCC) and kindly provided by Dr Francesca Degrassi (CNR IBPM) and maintained in minimal essential medium or DMEM-F12 medium supplemented with fetal calf serum, antibiotics, and nonessential amino acids. Cells were grown at 37 °C, in a humidified atmosphere, with 5% CO2. […]
Parameter Measured: viability at 72 h, 10 µM (%)
Field: numeric (%). Do not append units.

// worked examples, viability at 72 h, 10 µM included
CC#Cc1ccc(C(=O)Nc2ccc(C3CC3N)cc2)cc1.Cl (stereo not drawn) | 86
Cl.NC1CC1c1ccc(NC(=O)c2ccc(C#CC3CC3)cc2)cc1 (stereo not drawn) | 89
CCCc1ccc(C(=O)Nc2ccc(C3CC3N)cc2)cc1.Cl (stereo not drawn) | 104
NC1CC1c1ccc(NC(=O)c2ccc(-c3ccccc3)cc2)cc1 (stereo not drawn) | 82
C#Cc1ccc(C(=O)Nc2ccc(C3CC3N)cc2)cc1 (stereo not drawn) [MC3935, reference compound] | 87

Next compound, please.
## Input Entry CN1CCN(c2cc(C(=O)Nc3ccc(C4CC4N)cc3)ccc2NC(=O)OCc2ccccc2)CC1 (stereo not drawn) has what viability at 72 h, 10 µM?
## Output 72

====

Target Under Test: human LSD1-CoREST complex (Homo sapiens, UniProt O60341)
Construct: made in house
Experiment Summary: ThermoFAD thermal stability assay
Assay type: binding
Stated Conditions: LSD1-CoREST thermal stability
Parameter Measured: ΔTm

Worked examples, 5 compounds total:
CC#Cc1ccc(C(=O)Nc2cccc(C3CC3N)c2)cc1.Cl (centres unmarked) | 0 °C
Cl.NC1CC1c1ccc(NC(=O)c2ccc(C#CC3CC3)cc2)cc1 (centres unmarked) | +8 °C
N#Cc1ccc(C(=O)Nc2ccc(C3CC3N)cc2)cc1 (centres unmarked) | +8.5 °C
CCCc1ccc(C(=O)Nc2ccc(C3CC3N)cc2)cc1.Cl (centres unmarked) | +9.5 °C
C#Cc1cccc(C(=O)Nc2ccc(C3CC3N)cc2)c1.Cl (centres unmarked) | +10 °C

## Input Fill blank: measured ΔTm of the compound CC#Cc1ccc(C(=O)Nc2ccc(C3CC3N)cc2)cc1.Cl (centres unmarked) is ____.
## Output +8 °C

## Input Next record, please: Cl.NC1CC1c1ccc(NC(=O)c2ccc(C#Cc3ccccc3)cc2)cc1 (centres unmarked)
## Output +8 °C

## Input // same read-out, input: Cc1ccc(C(=O)Nc2ccc(C3CC3N)cc2)cc1.Cl (centres unmarked)
## Output +8 °C

====

Measured Percentage of reduction of NTS viability, 72 h values are reported for all entries that follow.
System: newly transformed schistosomula (NTS)
Experiment Summary: NTS viability phenotypic screening, 72 h
Stated Conditions: 10 μM
Give your result in % as a bare value.

## Input Field: Percentage of reduction of NTS viability, 72 h (newly transformed schistosomula (NTS)). Entry: NC1CC1c1ccc(NC(=O)c2ccc(-c3ccco3)cc2)cc1 (centres unmarked)
## Output 36.2

## Input # repeat for NC1CC1c1ccc(NC(=O)c2ccn(C(=O)OCc3ccccc3)c2)cc1 (centres unmarked)
## Output 40.0

## Input Now give it for C#Cc1cccc(C(=O)Nc2ccc(C3CC3N)cc2)c1.Cl (centres unmarked) too.
## Output 31.2

## Input Likewise for NC1CC1c1ccc(NC(=O)CNC(=O)OCc2ccccc2)cc1 (centres unmarked) ?
## Output 37.93

## Input // query: CCCc1ccc(C(=O)Nc2ccc(C3CC3N)cc2)cc1.Cl (centres unmarked)
## Output 87.5

## Input Subsequent entry: Cl.NC1CC1c1ccc(NC(=O)c2ccc(C#Cc3ccccc3)cc2)cc1 (centres unmarked)
## Output 29.2

## Input Query Cc1ccc(C(=O)Nc2ccc(C3CC3N)cc2)cc1.Cl (centres unmarked) next
## Output 22.9

## Input Thanks! And NC1CC1c1ccc(NC(=O)Cc2cccc3ccccc23)cc1 (centres unmarked) ?
## Output 46.5

## Input Another compound to check: CC#Cc1ccc(C(=O)Nc2ccc(C3CC3N)cc2)cc1.Cl (centres unmarked)
## Output 95.8

## Input Proceed to NC1CC1c1ccc(NC(=O)c2cc3ccccc3n2CC(=O)Nc2ccccc2)cc1 (centres unmarked)
## Output 37.9

## Input Then this compound: CN1CCN(c2cc(C(=O)Nc3ccc(C4CC4N)cc3)ccc2NC(=O)OCc2ccccc2)CC1 (centres unmarked)
## Output 100

## Input Then what about the compound NC1CC1c1ccc(NC(=O)c2ccc(O)c3ncccc23)cc1 (centres unmarked) ?
## Output 37.9

## Input Okay, and NC1CC1c1ccc(NC(=O)c2ccc(-c3ccccc3)cc2)cc1 (centres unmarked) ?
## Output 98

## Input Again, but for N#Cc1ccc(C(=O)Nc2ccc(C3CC3N)cc2)cc1 (centres unmarked)
## Output 25.0
